# System: T1, human OX40_Fc (R&D Systems) (human, UniProt P43489 29-216)
# T1 construct: Bought
# T1 sequence (P43489 29-216): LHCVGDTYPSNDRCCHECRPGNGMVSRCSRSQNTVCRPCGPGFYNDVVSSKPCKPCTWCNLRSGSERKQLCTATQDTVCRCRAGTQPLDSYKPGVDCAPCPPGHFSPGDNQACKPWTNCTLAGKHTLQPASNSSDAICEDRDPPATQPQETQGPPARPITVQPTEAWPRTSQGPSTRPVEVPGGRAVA
# Method: BLI, hOX40-Fc on tip, Fab 200 nM, monovalent
Each record here notes measured pKd.
pKd (log units): -log10 of the concentration in mol/L.

Binder | Measured Property | Recorded Number
ADI-20112, Fab (Fab, V domains shown) VH: QVQLVESGGGVVQPGRSLRLSCAASGFTFSSYGMHWVRQAPGKGLEWVAVISYDGSNKYYADSVKGRFTISRDNSKNTLYLQMNSLRAEDTAVYYCARGRPWYSETGTSAFDIWGQGTMVTVSS VL: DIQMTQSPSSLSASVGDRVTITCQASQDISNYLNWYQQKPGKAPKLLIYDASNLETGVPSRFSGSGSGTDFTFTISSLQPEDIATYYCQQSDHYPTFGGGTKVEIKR | pKd | 7.19
ADI-25650, Fab (Fab, V domains shown) VH: QVQLVESGGGVVQPGRSLRLSCAASGFTFSVYNMHWVRQAPGKGLEWVAVIAYDGSAKYYADSVKGRFTISRDNSKNTLYLQMNSLRAEDTAVYYCARGRPWYSETGTSAFDIWGQGTMVTVSS VL: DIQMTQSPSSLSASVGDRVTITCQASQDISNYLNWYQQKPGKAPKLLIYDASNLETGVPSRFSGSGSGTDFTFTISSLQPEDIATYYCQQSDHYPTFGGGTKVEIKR | pKd | 8.98

GET /values?readout=pKd&item= ADI-25654, Fab (Fab, V domains shown) VH: QVQLVESGGGVVQPGRSLRLSCAASGFTFRSYDMHWVRQAPGKGLEWVAYIAYDGSNKYYADSVKGRFTISRDNSKNTLYLQMNSLRAEDTAVYYCARGRPWYSETGTSAFDIWGQGTMVTVSS VL: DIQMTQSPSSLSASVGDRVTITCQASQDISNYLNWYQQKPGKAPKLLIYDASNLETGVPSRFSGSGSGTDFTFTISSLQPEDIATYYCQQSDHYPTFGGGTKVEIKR
8.74

Entry under review: ADI-25651, Fab (Fab, V domains shown) VH: QVQLVESGGGVVQPGRSLRLSCAASGFTFSSRNMHWVRQAPGKGLEWVAVIAYDGSLKYYADSVKGRFTISRDNSKNTLYLQMNSLRAEDTAVYYCARGRPWYSETGTSAFDIWGQGTMVTVSS VL: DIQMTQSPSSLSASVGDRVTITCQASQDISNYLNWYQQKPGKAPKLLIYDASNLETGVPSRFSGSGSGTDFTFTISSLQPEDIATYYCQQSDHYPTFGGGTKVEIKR . Reported pKd?
8.63

Can you look up the measured pKd of ADI-23519, Fab (Fab, V domains shown) VH: QVQLQESGPGLVKPSQTLSLTCTVSGGSISSGSSYWSWIRQHPGKGLEWIGYIYMSGETYYNPSLKSRVTISVDTSKNQFSLKLSSVTAADTAVYYCARDVGYPHYYGMDVWGQGTTVTVSS VL: EIVLTQSPGTLSLSPGERATLSCRASQSVSSSYLAWYQQKPGQAPRLLIYGASSRATGIPDRFSGSGSGTDFTLTISRLEPEDFAVYYCQQSERSPFTFGGGTKVEIKR for me?
8.27
